Taken from PubChem BioAssay.

// values below are reported viability
- Method Summary: viability of PTEN-null HCT116 cells – cell-based, HCT116 clonal line, CellTiter-Glo, pilot screen (AID 824);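 also: 0% = 20 µM Hyamine control and 100% = vehicle cell control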
- Assay Conditions: HCT116 PTEN-deleted viability, 60 h, at 10 µM, stronger effect = lower value
Results filed as inconclusive are left out.
Expressed in %, but write only the number.

- Compound: "O=C1CCCCCC1C1(O)C(=O)Nc2ccccc21 (configuration not stated)"
  Readout Label: "viability"
  Recorded Measurement: 95
- Compound: "Cn1c(=O)oc2cc(S(=O)(=O)N3CCN(c4ccccn4)CC3)ccc21"
  Readout Label: "viability"
  Recorded Measurement: 69.4
- Compound: "Cc1ccc(CCP(=O)(O)CN2CCOCC2)cn1"
  Readout Label: "viability"
  Recorded Measurement: 92.3
- Compound: "CCOc1ccc(C2CC(c3cccc(OC)c3)Nc3nc(N)nn32)cc1 (configuration not stated)"
  Readout Label: "viability"
  Recorded Measurement: 87.1
- Compound: "CCCc1cc(C(=O)Nc2ccc(C(C)=O)cc2)no1"
  Readout Label: "viability"
  Recorded Measurement: 104

Q) Can you look up the measured viability of O=C(CN1CCN(Cc2ccccc2F)C1=O)NCc1cccnc1 for me?
A) 94.6

Q) What does the data say about its viability? Entry: CC(C)CCn1c(NCCc2ccccc2)nc2c1c(=O)n(C)c(=O)n2C
A) 57.4

* * *

This listing pairs compounds with measured viability.
- Method Summary: viability of HCT116 without oncogenic beta-catenin – human colon tumor cells, pilot screen (AID 823);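 also: 0% = wells killed by 20 µM Hyamine and 100% = untreated DMSO cell wells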
- Assay Conditions: HCT116 beta-catenin knockout viability, CellTiter-Glo, 60 h; at 10 µM; stronger effect = lower value
Results filed as inconclusive are left out. Active and inactive are the calls of the source.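 Rule for the calls: active = cell viability at or below a set limit in both duplicate runs, the limit being the all-compound median minus 4 SD (cut at about 23% in these data, passing the limit was not always enough); inconclusive = no clear call, values can overlap the other calls; inactive = the rest.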

- Compound: "Cc1nc2ccccc2c2oc(C(=O)N3CCC(N4CCCCC4)CC3)cc12"
  Recorded Measurement: "83.9% (inactive)"

Next, consider the following compound.
Q) Record request: viability value, item Cc1ccc2c(c1)C(c1ccccc1)N(C(=O)c1ccc(Br)o1)CC(=O)N2 (stereo not given)
A) 76.4% (inactive)

* * *

- Method Summary: H69AR cell proliferation blockers – human, duplicate replicates, primary screen (AID 580);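 also: 100% = mean luminescence of untreated wells and 0% = no signal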
- Assay Conditions: H69AR lung tumor cells viability, ATP luminescence, 72 h; at 10 µM
Activity calls are given as the source filed them.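 The calls were made as follows: active = viability at or under a set limit in both replicates, limit being median viability minus 3 SD (cut at about 48% in these data, passing the limit was not always enough); inconclusive = at or under the limit in just one replicate; inactive = at or above the limit in both replicates.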
I would appreciate it if you answered using one of these outcomes: label 1 (active), label 0 (inactive)

- Molecule: "COC(=O)c1sc(NC(=O)COc2ccccc2OC)nc1C"
  Assigned Category: "label 0"
- Molecule: "COc1cccc(N(C(C)=O)c2nc(C)cc(C)c2C#N)c1"
  Assigned Category: "label 0"
- Molecule: "CCCNC(=O)C1CC(=O)N(c2ccc(OCC(=O)Nc3cc(C)cc(C)c3)cc2)C1 (stereo unspecified)"
  Assigned Category: "label 0"
- Molecule: "O=C1c2ccccc2C(Nc2ccc(-c3nc4ccccc4[nH]3)cc2)N1Cc1ccco1 (stereo unspecified)"
  Assigned Category: "label 0"
- Molecule: "COCCOC(=O)c1[nH]c2c(c1C)C(=O)CC(c1ccco1)C2 (stereo unspecified)"
  Assigned Category: "label 1"

Note: attention shifts to another entry.
Q) Could you kindly confirm the outcome this assay logged for Cc1ccc(N=Cc2ccc(O)cc2O)cc1F ?
A) label 0

* * *

Catalogue of growth inhibition values
- Method Summary: S. cerevisiae growth inhibition in restrictive medium, OD615, pilot screen, restrictive growth control, yeast lifespan reduction project (AID 706);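 also: modified DeaD lifespan yeast strain shifted to restrictive glucose medium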
- Assay Conditions: OD615, 48 h, at 10 µM, stronger effect = higher value
# unit: % | format: bare number

Examples from the recorded data:
- Compound: "Cc1cc(NC(=O)c2cccc(S(=O)(=O)N3CC(c4ccccc4)CC3=O)c2)no1 (stereo unspecified)"
  Unit String: "%"
  Recorded Measurement: -8.59
- Compound: "COc1cccc(C2C(C(N)=O)=C(C)Nc3nc(CCCO)nn32)c1OC (stereo unspecified)"
  Unit String: "%"
  Recorded Measurement: 14.1
- Compound: "Clc1cccc(-c2nnc(-c3ccccc3)o2)c1"
  Unit String: "%"
  Recorded Measurement: 3.85
- Compound: "CC(C)N(C(=O)CSc1nc2c([nH]1)c(=O)n(C)c(=O)n2C)c1ccccc1"
  Unit String: "%"
  Recorded Measurement: -12.7
- Compound: "COc1ccc(N2CCN(CCNC(=O)CCS(=O)(=O)c3cccc4nsnc34)CC2)cc1"
  Unit String: "%"
  Recorded Measurement: 4.11

Q) Which growth inhibition value is on record for O=C(NC(Cc1ccc2c(c1)OCO2)C(=O)N1CCCC1C(=O)O)c1ccccc1 (stereo unspecified) ?
A) 0.59

Q) Query: growth inhibition; subject: CCOc1ccc(N(CC(=O)NCc2ccco2)S(=O)(=O)c2ccc(OC)c(OC)c2)cc1
A) -16.6

Q) May I ask what growth inhibition has been recorded for Cc1cc2ncn(C3CC(=O)N(Cc4ccc(N5CCCC5=O)cc4)C3=O)c2cc1C (stereo unspecified) ?
A) 13.8

Q) Can you share its growth inhibition? I mean this compound: O=C(O)CCC(=O)Nc1ccc(-c2nnc(-c3ccco3)o2)cc1
A) -4.63

Q) Which growth inhibition is listed for COc1ccc(-c2nc(CS(=O)CC(=O)NCc3ccc(Cl)cc3)c(C)o2)cc1 (stereo unspecified) ?
A) 4.36

Q) For Cn1c(=NC(=O)c2ccco2)sc2cccc(F)c21 , what is its reported growth inhibition?
A) -1.11

Q) Which growth inhibition reading was recorded for the compound Cn1c(=O)oc2cc(S(=O)(=O)N3CCCC(C(=O)NCC4COc5ccccc5O4)C3)ccc21 (stereo unspecified) ?
A) -20.4

Q) For the compound shown here, CC(=O)Nc1ccc(S(=O)(=O)N2CCN(CCC#N)CC2)cc1 , give the reported growth inhibition.
A) 6.44

Q) Name the recorded growth inhibition for CCOC(=O)N1CCC(N2C(=O)c3ccccc3C2Nc2cc(OC)c(OC)c(OC)c2)CC1 (stereo unspecified) .
A) 8.61

Q) May I ask what growth inhibition has been recorded for Cc1ccc(C(=O)Nc2ccc(Cl)cn2)cc1S(=O)(=O)N1CCOCC1 ?
A) 0.715

Q) For the compound CS(=O)(=O)c1ccc(N)cc1 , what growth inhibition is on record?
A) -8.62

Q) Form field: reported growth inhibition of CCn1cc(C(=O)N2CCOCC2)c(=O)c2cc(S(=O)(=O)N(C)C3CCCCC3)ccc21
A) -19.3

Q) Param item = COc1ccc(-n2c(=O)c3c4c(sc3n3cnnc23)CC(C)CC4)cc1 (stereo unspecified) ; retrieve measured growth inhibition.
A) 9.5

Q) What does the record list as growth inhibition for Cc1cc(NC(=O)CS(=O)(=O)c2cn(Cc3ccccc3Cl)c3ccccc23)no1 ?
A) -0.555

Q) GET /values?readout=growth inhibition&item= COc1ccc(-c2nnc(SCC(=O)N3CCOCC3)o2)cc1OC
A) -3.02

Q) Recorded growth inhibition for CCOC(=O)N1CCC(Nc2ncnc3c2cnn3-c2ccc(C)cc2C)CC1 , please?
A) -2.8
